Reference source: patent US12723024B2

test: Solubility in pH buffers and bio-relevant media at 37° C.; assay type: physicochemical; settings: thermodynamic from solid, FeSSIF-V1, pH 5.0, tested up to 2 mg/mL
Reported property: solubility at 24 h

solubility at 24 h lookup needed for COc1cc(C(F)(F)F)c(OC)cc1[C@@H]1CCCNC1 [Free base (Polymorph B)] , thanks. > 2000 µg/mL

====

assay: Solubility of diastereomeric salts in solvents; assay type: physicochemical; details: 20 °C, organic solvent or mixture; in MeOH; read-out: Solubility @ 20-30° C.
Listing: solubility of selected compounds
Number only, in mg/mL; omit the unit.

INSERT INTO measurements (compound, reported_property, unit_spec, reported_value) VALUES
  ('COc1cc(C(F)(F)F)c(OC)cc1[C@@H]1CCCNC1 [drawing 39]', 'solubility', 'mg/mL', 30);

Now consider the entry below.
Given the compound COc1cc(C(F)(F)F)c(OC)cc1[C@H]1CCCNC1 , what is its reported solubility? 40
